biological target: human 20S proteasome (chymotrypsin-like activity, with PA28 activator) (Homo sapiens, UniProt P28074)
Sequence (P28074 60-263): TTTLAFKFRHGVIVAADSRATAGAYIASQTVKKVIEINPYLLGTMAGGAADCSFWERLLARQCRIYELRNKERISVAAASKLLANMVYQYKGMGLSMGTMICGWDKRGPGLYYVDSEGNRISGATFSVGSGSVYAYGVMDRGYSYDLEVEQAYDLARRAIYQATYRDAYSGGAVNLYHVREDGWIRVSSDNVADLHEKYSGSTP
Sequence (P25786 whole entry partner): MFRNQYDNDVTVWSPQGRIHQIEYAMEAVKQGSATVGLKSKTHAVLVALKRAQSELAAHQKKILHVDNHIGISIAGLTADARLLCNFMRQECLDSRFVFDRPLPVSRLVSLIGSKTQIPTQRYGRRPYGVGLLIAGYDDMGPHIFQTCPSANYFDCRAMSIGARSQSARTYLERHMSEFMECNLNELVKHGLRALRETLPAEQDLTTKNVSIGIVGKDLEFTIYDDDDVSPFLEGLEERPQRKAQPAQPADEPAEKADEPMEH
Measured IC50 accompanies every entry in the list below.
reported.property: IC50 (µM)

>>> reported_measurement("COC(=O)c1ccc(/C=C/c2nsc(=O)o2)cc1 [compound 35]")
27.5
>>> reported_measurement("O=c1oc(Cc2ccccc2)ns1 [compound 9, 5-Benzyl-1,3,4-oxathiazol-2-one]")
1.9
>>> reported_measurement("O=c1oc(/C(=C/c2ccccc2)c2ccccc2)ns1 [compound 23]")
14
>>> reported_measurement("O=c1oc(/C=C/c2ccsc2)ns1 [compound 52]")
11.3

----------
Measured IC50 accompanies every entry in the list below.
molecular target: Mtb 20S open-gate proteasome (Mycobacterium tuberculosis, UniProt P9WHT9); experiment: biochemical
Sequence (P9WHT9 whole entry): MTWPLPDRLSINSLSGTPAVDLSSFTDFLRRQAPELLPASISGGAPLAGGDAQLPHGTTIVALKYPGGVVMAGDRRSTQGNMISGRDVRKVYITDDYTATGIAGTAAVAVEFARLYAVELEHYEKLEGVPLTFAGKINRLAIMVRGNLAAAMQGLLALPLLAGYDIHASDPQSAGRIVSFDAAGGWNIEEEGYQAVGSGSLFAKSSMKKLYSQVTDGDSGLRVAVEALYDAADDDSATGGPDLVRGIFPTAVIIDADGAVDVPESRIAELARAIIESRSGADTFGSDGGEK
Sequence (P9WHU1 whole entry partner): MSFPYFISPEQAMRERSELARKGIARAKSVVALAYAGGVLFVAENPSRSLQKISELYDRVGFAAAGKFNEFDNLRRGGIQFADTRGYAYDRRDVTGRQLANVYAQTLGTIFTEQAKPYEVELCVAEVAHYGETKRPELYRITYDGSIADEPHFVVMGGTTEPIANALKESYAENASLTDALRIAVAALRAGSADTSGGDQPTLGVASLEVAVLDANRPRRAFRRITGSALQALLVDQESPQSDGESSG
reported.property: IC50 (nM)

>>> reported_measurement("Cc1cccc(/C=C/c2nsc(=O)o2)c1")
1600
>>> reported_measurement("CCc1ccc(/C=C/c2nsc(=O)o2)cc1")
1080
>>> reported_measurement("COC(=O)c1ccc(/C=C/c2nsc(=O)o2)cc1")
415
>>> reported_measurement("N#Cc1ccc(/C=C/c2nsc(=O)o2)cc1")
495
>>> reported_measurement("O=c1oc(/C=C/c2cccc(OC(F)(F)F)c2)ns1")
1800
>>> reported_measurement("O=Cc1ccc(/C=C/c2nsc(=O)o2)cc1")
695
>>> reported_measurement("O=c1oc(/C=C/c2ccc([N+](=O)[O-])cc2)ns1")
1400

----------
experiment: physchem; details: pbs, pH 7.4, aqueous buffer
reported.property: solubility at 18 h (µM)

>>> reported_measurement("O=c1oc(/C=C/c2cccs2)ns1 [compound 51]")
22.6
>>> reported_measurement("O=c1oc(/C=C/c2c[nH]c3ccccc23)ns1 [compound 57, 57]")
4.1
>>> reported_measurement("O=Cc1ccc(/C=C/c2nsc(=O)o2)o1 [compound 53]")
56.1
>>> reported_measurement("COc1ncccc1/C=C/c1nsc(=O)o1 [compound 50]")
2.1
>>> reported_measurement("O=c1oc(/C=C/c2cccnc2)ns1 [compound 55]")
70.6
>>> reported_measurement("O=c1nc2c(/C=C/c3nsc(=O)o3)cccn2s1 [compound 56]")
2.4
>>> reported_measurement("O=c1oc(/C=C/c2ccsc2)ns1 [compound 52]")
19.7
>>> reported_measurement("O=c1oc(/C=C/c2ccncc2)ns1 [compound 49]")
84.7
>>> reported_measurement("O=c1oc(/C=C/c2ccccn2)ns1 [compound 54]")
64.6

----------
target: human 20S proteasome (chymotrypsin-like activity, with PA28 activator) (Homo sapiens, UniProt P28074)
Measured log10 of IC50 accompanies every entry in the list below.
reported.property: log10 of IC50 (log10 of the value in µM)

>>> reported_measurement("COc1ccc(/C=C/c2nsc(=O)o2)cc1")
0.93
>>> reported_measurement("O=c1oc(-c2cccc(F)c2)ns1")
1.04
>>> reported_measurement("C=Cc1nsc(=O)o1")
0.96
>>> reported_measurement("N#Cc1ccc(/C=C/c2nsc(=O)o2)cc1")
1.62
>>> reported_measurement("O=Cc1ccc(/C=C/c2nsc(=O)o2)o1")
0.52

----------
test: physchem; settings: ch3cn+pbs (1+1), pH 7.4
I'd appreciate it if you marked entries Yes when remaining at 24 h, 50 µM is lower than 40% and No when it is not.

>>> class("O=c1oc(/C=C/C(F)(F)F)ns1")
"No"
>>> class("O=c1oc(-c2cnccn2)ns1")
"Yes"
>>> class("O=C(c1ccccc1)c1nsc(=O)o1")
"No"
>>> class("O=c1oc(C#Cc2ccccc2)ns1")
"No"
>>> class("O=c1oc(/C=C/c2ccccc2)ns1 [compound 17, (E)-5-Styryl-1,3,4-oxathiazol-2-one]")
"Yes"
>>> class("O=c1onc(-c2ccccc2)o1")
"Yes"
>>> class("COc1cccc(-c2nsc(=O)o2)c1")
"Yes"

----------
biological target: Mtb 20S open-gate proteasome (Mycobacterium tuberculosis); assay: biochemical
pIC50: −log10 of the molar value.
reported.property: pIC50

>>> reported_measurement("COc1ccc(/C=C/c2nsc(=O)o2)cc1")
5.87
>>> reported_measurement("O=c1oc(/C=C/c2ccc(OC(F)(F)F)cc2)ns1")
6.11
>>> reported_measurement("CCOC(=O)c1cccc(/C=C/c2nsc(=O)o2)c1")
5.00
>>> reported_measurement("O=c1oc(/C=C/c2ccc(Cl)cc2)ns1")
6.25
>>> reported_measurement("CCOC(=O)c1ccc(/C=C/c2nsc(=O)o2)cc1")
6.32
>>> reported_measurement("O=c1oc(/C=C/c2cc(Cl)ccc2Cl)ns1")
6.11
>>> reported_measurement("CC(C)c1ccc(/C=C/c2nsc(=O)o2)cc1")
5.77
>>> reported_measurement("O=C(c1ccccc1)c1ccc(/C=C/c2nsc(=O)o2)cc1")
5.92
>>> reported_measurement("CCc1cccc(/C=C/c2nsc(=O)o2)c1")
5.84
>>> reported_measurement("Cc1ccc(/C=C/c2nsc(=O)o2)cc1")
6.00

----------
assay: physchem; details: ch3cn+pbs (1+1), pH 7.4
reported.property: remaining at 24 h, 50 µM

>>> reported_measurement("Cc1cccc(/C=C/c2nsc(=O)o2)c1")
"98.1%"
>>> reported_measurement("CCOC(=O)c1ccc(/C=C/c2nsc(=O)o2)cc1")
"91.1%"
>>> reported_measurement("O=Cc1ccc(/C=C/c2nsc(=O)o2)cc1")
"91.4%"
>>> reported_measurement("O=c1oc(/C=C/c2ccc(Cl)cc2)ns1")
"98.2%"

----------
biological target: Mtb 20S open-gate proteasome (Mycobacterium tuberculosis, UniProt P9WHT9); test: biochemical
pIC50: −log10 of the molar value.
reported.property: pIC50

>>> reported_measurement("O=c1oc(-c2cnccn2)ns1")
5.64
>>> reported_measurement("COc1cccc(-c2nsc(=O)o2)c1")
6.18
>>> reported_measurement("O=c1oc(/C=C/c2ccccc2)ns1 [compound 17, (E)-5-Styryl-1,3,4-oxathiazol-2-one]")
6.38
>>> reported_measurement("O=C(c1ccccc1)c1nsc(=O)o1")
5.65
>>> reported_measurement("O=c1oc(C#Cc2ccccc2)ns1")
5.99

----------
biological target: human 20S proteasome (chymotrypsin-like activity, with PA28 activator) (Homo sapiens)
pIC50: −log10 of the molar value.
Assign class by pIC50: not lower than 5 means Condition met; lower than 5 means Condition not met.

>>> class("O=c1oc(C(O)c2ccccc2)ns1 (stereo not drawn) [compound 14]")
"Condition not met"
>>> class("O=c1oc(CCc2ccccc2)ns1 [compound 15, 5-Phenethyl-1,3,4-oxathiazol-2-one]")
"Condition met"
>>> class("O=c1oc(/C=C/c2cccc(OC(F)(F)F)c2)ns1 [compound 43]")
"Condition not met"
>>> class("O=c1oc(C#Cc2ccccc2)ns1 [compound 20, 5-(Phenylethynyl)-1,3,4-oxathiazol-2-one]")
"Condition met"
>>> class("O=c1oc(/C=C/c2ccc(C(F)(F)F)cc2)ns1 [compound 18]")
"Condition not met"
>>> class("O=c1oc(-c2ccccc2)ns1 [compound 1, 5-Phenyl-1,3,4-oxathiazol-2-one]")
"Condition met"
>>> class("O=c1oc(-c2cnccn2)ns1 [compound 2, 5-(Pyrazin-2-yl)-1,3,4-oxathiazol-2-one]")
"Condition met"
>>> class("O=C(c1ccccc1)c1nsc(=O)o1 [compound 19, 5-Benzoyl-1,3,4-oxathiazol-2-one]")
"Condition met"

----------
test: physchem; details: pbs ph 7.4, pH 7.4
reported.property: remaining at 24 h, 50 µM (%)

>>> reported_measurement("COc1ccc(/C=C/c2nsc(=O)o2)cc1 [compound 28]")
1.5

----------
biological target: human 20S proteasome (chymotrypsin-like activity, with PA28 activator) (Homo sapiens, UniProt P28074)
pIC50: −log10 of the molar value.
Measured pIC50 accompanies every entry in the list below.
reported.property: pIC50

>>> reported_measurement("O=c1oc(/C=C/c2ccncc2)ns1 [compound 49]")
4.11
>>> reported_measurement("CCc1cccc(/C=C/c2nsc(=O)o2)c1 [compound 42]")
4.49
>>> reported_measurement("O=c1oc(/C=C/c2cccs2)ns1 [compound 51]")
4.73
>>> reported_measurement("Cc1cccc(/C=C/c2nsc(=O)o2)c1 [compound 41]")
4.41

----------
assay: physchem; conditions: ch3cn+pbs (1+1), pH 7.4
Measured remaining at 24 h, 50 µM accompanies every entry in the list below.
reported.property: remaining at 24 h, 50 µM (%)

>>> reported_measurement("COc1ncccc1/C=C/c1nsc(=O)o1")
97.7
>>> reported_measurement("O=c1oc(/C=C/c2ccsc2)ns1")
99.1
>>> reported_measurement("O=Cc1ccc(/C=C/c2nsc(=O)o2)o1")
88.9
>>> reported_measurement("O=c1oc(/C=C/c2ccncc2)ns1")
91.6
>>> reported_measurement("O=c1oc(/C=C/c2cccs2)ns1")
97.6
